Data provenance is patent US6518243B1.

tested on: S. aureus (ATCC 29213); experiment: Zone of inhibition screen, 96 well agar array format; type: cell-based; parameters: scale not given here; settings: zone of inhibition relative to 1 mg/ml p-chlorobiphenylvancomycin
METRIC_NAME: zone score, S. aureus ATCC 29213
Keep the answer to the number alone.

// below: answered compounds
COMPOUND | zone score, S. aureus ATCC 29213
CC(C)=C(N)C(=O)NC1C(=O)NC(CC(N)=O)C(=O)NC2C(=O)NC3C(=O)NC(C(=O)NC(C(=O)O)c4cc(O)cc(O)c4-c4cc3ccc4O)C(O)c3ccc(c(Cl)c3)Oc3cc2cc(c3OC2OC(CO)C(O)C(O)C2OC2CC(C)(NCc3ccc(-c4ccc(Cl)cc4)cc3)C(O)C(C)O2)Oc2ccc(cc2Cl)C1O (stereo not drawn) | 2
CC1OC(OC2C(Oc3c4cc5cc3Oc3ccc(cc3Cl)C(O)C3NC(=O)C(NC(=O)C5NC(=O)C(CC(N)=O)NC(=O)C(NC(=O)c5ccccn5)C(O)c5ccc(c(Cl)c5)O4)c4ccc(O)c(c4)-c4c(O)cc(O)cc4C(C(=O)O)NC3=O)OC(CO)C(O)C2O)CC(C)(NCc2ccc(-c3ccc(Cl)cc3)cc2)C1O (stereo not drawn) | 2

What value of zone score, S. aureus ATCC 29213 has been recorded for this entry: CC1OC(OC2C(Oc3c4cc5cc3Oc3ccc(cc3Cl)C(O)C3NC(=O)C(NC(=O)C5NC(=O)C(CC(N)=O)NC(=O)C(NC(=O)CNC(=O)CNC(=O)CNC(=O)OCc5ccccc5)C(O)c5ccc(c(Cl)c5)O4)c4ccc(O)c(c4)-c4c(O)cc(O)cc4C(C(=O)O)NC3=O)OC(CO)C(O)C2O)CC(C)(NCc2ccc(-c3ccc(Cl)cc3)cc2)C1O (stereo not drawn) 2

###

system: E. faecalis (CL 4877); assay: Zone of inhibition screen, 96 well agar array format; format: cell-based; set-up: scale not given here; conditions: zone of inhibition relative to 1 mg/ml stock solution of p-chlorobiphenylvancomycin
The entries below are paired with their reported zone score, E. faecalis CL 4877.
Keep the answer to the number alone.

// below: answered molecules
MOLECULE | zone score, E. faecalis CL 4877
C[C@H]1O[C@H](O[C@H]2[C@H](Oc3c4cc5cc3Oc3ccc(cc3Cl)[C@@H](O)[C@@H](NC(=O)[C@@H](N)CCCNC(N)=O)C(=O)N[C@@H](CC(N)=O)C(=O)N[C@H]5C(=O)N[C@H]3C(=O)N[C@H](C(=O)N[C@@H](C(=O)O)c5cc(O)cc(O)c5-c5cc3ccc5O)[C@H](O)c3ccc(c(Cl)c3)O4)O[C@H](CO)[C@@H](O)[C@@H]2O)C[C@@](C)(NCc2ccc(-c3ccc(Cl)cc3)cc2)[C@H]1O [Compound 5] | 2
CC1OC(OC2C(Oc3c4cc5cc3Oc3ccc(cc3Cl)C(O)C(NC(=O)C3OC(O)C(O)C(O)C3O)C(=O)NC(CC(N)=O)C(=O)NC5C(=O)NC3C(=O)NC(C(=O)NC(C(=O)O)c5cc(O)cc(O)c5-c5cc3ccc5O)C(O)c3ccc(c(Cl)c3)O4)OC(CO)C(O)C2O)CC(C)(NCc2ccc(-c3ccc(Cl)cc3)cc2)C1O (mixture of isomers) [Compound 147] | 2

Below: the item to evaluate.
What value of zone score, E. faecalis CL 4877 has been recorded for this entry: CSCC[C@@H](N)C(=O)N[C@H]1C(=O)N[C@@H](CC(N)=O)C(=O)N[C@H]2C(=O)N[C@H]3C(=O)N[C@H](C(=O)N[C@@H](C(=O)O)c4cc(O)cc(O)c4-c4cc3ccc4O)[C@H](O)c3ccc(c(Cl)c3)Oc3cc2cc(c3O[C@@H]2O[C@H](CO)[C@@H](O)[C@H](O)[C@H]2O[C@@H]2C[C@@](C)(NCc3ccc(-c4ccc(Cl)cc4)cc3)[C@@H](O)[C@@H](C)O2)Oc2ccc(cc2Cl)[C@H]1O [Compound 15] 2
